Experiment: Tissue distribution of SH-337 in rats (LC-MS/MS)
Format: in vivo, rat
Conditions: male, SD, rat, stomach, po, 4 mg/kg, rats, single oral 4 mg/kg SH-337; read-out: Concentration, Stomach, 1 h
Protocol: 15 SPF male SD rats were randomly divided into 5 groups, three per group. Fasting was for 4 hours. Plasma, heart, liver, and stomach were obtained 0.25, 1, 2, 4, and 24 hours after oral administration of SH-337 (0.4 mg/mL in water) at a dose of 4 mg/kg. At designated time points, rats were anesthetized with ether, and the blood samples were collected via the abdominal aorta. […]
observation.type: concentration at 1 h

cpd_smiles=CNCc1cc(-c2ccc(OCC3CC3)cc2F)n(S(=O)(=O)c2cccnc2)c1.Cl.Cl result="3340 ng/mL"

* * *

Experiment: Tissue distribution of SH-337 in rats (LC-MS/MS)
Format: in vivo, rat
Details: male, SD, rat, liver, po, 4 mg/kg, rats, single oral 4 mg/kg SH-337; read-out: Concentration, Liver, 4 h
observation.type: concentration at 4 h (ng/mL)

cpd_smiles=CNCc1cc(-c2ccc(OCC3CC3)cc2F)n(S(=O)(=O)c2cccnc2)c1.Cl.Cl quantitative_readout=145

* * *

Assay: Tissue distribution of SH-337 in rats (LC-MS/MS)
Assay type: in vivo, rat
Details: male, SD, rat, plasma, po; rats, i.g. 4 mg/kg SH-337; read-out: AUC0–24, Plasma
observation.type: AUC(0-t) (ng·h/mL)

cpd_smiles=CNCc1cc(-c2ccc(O)cc2F)n(S(=O)(=O)c2cccnc2)c1.Cl.Cl units_label=ng·h/mL quantitative_readout=20.3

* * *

Experiment: pKa measurement (pH-metric method)
Format: physicochemical
Settings: read-out: pKa
observation.type: pKa

cpd_smiles=CNCc1cc(-c2ccc(OCC3CC3)cc2F)n(S(=O)(=O)c2cccnc2)c1.Cl.Cl observation_type=pKa quantitative_readout=9
cpd_smiles=CNCc1cc(-c2ccc(OCc3cnn(C)c3)cc2F)n(S(=O)(=O)c2cccnc2)c1 observation_type=pKa quantitative_readout=9.26
cpd_smiles=CNCc1cc(-c2ccc(OCC3COC3)cc2F)n(S(=O)(=O)c2cccnc2)c1 observation_type=pKa quantitative_readout=9.13

* * *

Test: Tissue distribution of SH-337 in rats (LC-MS/MS)
Format: in vivo, rat
Conditions: male, SD, rat, liver, po, 4 mg/kg, rats, single oral 4 mg/kg SH-337; read-out: Concentration, Liver, 1 h
observation.type: concentration at 1 h (ng/mL)

cpd_smiles=CNCc1cc(-c2ccc(OCC3CC3)cc2F)n(S(=O)(=O)c2cccnc2)c1.Cl.Cl quantitative_readout=846

* * *

Assay: Tissue distribution of SH-337 in rats (LC-MS/MS)
Format: in vivo, rat
Conditions: male, SD, rat, liver, po, 4 mg/kg, rats, single oral 4 mg/kg SH-337; read-out: Concentration, Liver, 2 h
observation.type: concentration at 2 h

cpd_smiles=CNCc1cc(-c2ccc(OCC3CC3)cc2F)n(S(=O)(=O)c2cccnc2)c1.Cl.Cl observation_type="concentration at 2 h" result="262 ng/mL"

* * *

Assay: Tissue distribution of SH-337 in rats (LC-MS/MS)
Type: in vivo, rat
Details: male, SD, rat, stomach, po, 4 mg/kg, rats, single oral 4 mg/kg SH-337; read-out: Concentration, Stomach, 24 h
observation.type: concentration at 24 h (ng/mL)

cpd_smiles=CNCc1cc(-c2ccc(OCC3CC3)cc2F)n(S(=O)(=O)c2cccnc2)c1.Cl.Cl observation_type="concentration at 24 h" quantitative_readout=136

* * *

Assay: Tissue distribution of SH-337 in rats (LC-MS/MS)
Assay type: in vivo, rat
Details: male, SD, rat, plasma, po, 4 mg/kg, rats, single oral 4 mg/kg SH-337; read-out: Concentration, Plasma, 15 min
observation.type: concentration at 15 min (ng/mL)

cpd_smiles=CNCc1cc(-c2ccc(OCC3CC3)cc2F)n(S(=O)(=O)c2cccnc2)c1.Cl.Cl units_label=ng/mL quantitative_readout=9.4

* * *

Assay: Tissue distribution of SH-337 in rats (LC-MS/MS)
Format: in vivo, rat
Details: male, SD, rat, stomach, po, 4 mg/kg, rats, 1 h after oral administration of 4.0 mg/kg (Table 2); read-out: Drug concentration, Stomach
observation.type: concentration at 1 h (ng/mL)

cpd_smiles=CNCc1cc(-c2ccc(OCC3CC3)cc2F)n(S(=O)(=O)c2cccnc2)c1.Cl.Cl observation_type="concentration at 1 h" quantitative_readout=6690

* * *

Test: Tissue distribution of SH-337 in rats (LC-MS/MS)
Type: in vivo, rat
Conditions: male, SD, rat, plasma, po, 4 mg/kg, rats, single oral 4 mg/kg SH-337; read-out: Concentration, Plasma, 4 h
observation.type: concentration at 4 h (ng/mL)

cpd_smiles=CNCc1cc(-c2ccc(OCC3CC3)cc2F)n(S(=O)(=O)c2cccnc2)c1.Cl.Cl observation_type="concentration at 4 h" units_label=ng/mL quantitative_readout=6.7

* * *

Assay: Tissue distribution of SH-337 in rats (LC-MS/MS)
Assay type: in vivo, rat
Conditions: male, SD, rat, plasma, po, 4 mg/kg, rats, single oral 4 mg/kg SH-337; read-out: Concentration, Plasma, 2 h
Method: 15 SPF male SD rats were randomly divided into 5 groups, three per group. Fasting was for 4 hours. Plasma, heart, liver, and stomach were obtained 0.25, 1, 2, 4, and 24 hours after oral administration of SH-337 (0.4 mg/mL in water) at a dose of 4 mg/kg. At designated time points, rats were anesthetized with ether, and the blood samples were collected via the abdominal aorta. […]
observation.type: concentration at 2 h (ng/mL)

cpd_smiles=CNCc1cc(-c2ccc(OCC3CC3)cc2F)n(S(=O)(=O)c2cccnc2)c1.Cl.Cl quantitative_readout=5.1

* * *

Experiment: Two-week repeat-dose toxicity test
Format: in vivo, SD rats
Details: SD, rat, in vivo, po, no observed adverse effect level (NOAEL)
Description: For acute toxicity test: 12 SPF SD rats were randomly divided into three groups and received a single dose of SH-337 (1000 mg/kg, i.g.), and the animal tolerance was recorded within 2 hours. […] The body weight of the rats was recorded every 7 days. During the experiment, clinical parameters included apparent changes in the mental state, skin or fur, behavior, genitals, mucous membranes, respiration, stool consistency, glandular organ secretions, mortality, or other toxic results that were recorded. […]
observation.type: NOAEL at 14 days

compound="CNCc1cc(-c2ccc(OCC3CC3)cc2F)n(S(=O)(=O)c2cccnc2)c1.Cl.Cl [SH-337]" result="≥ 100 mg/kg"

* * *

Experiment: Tissue distribution of SH-337 in rats (LC-MS/MS)
Assay type: in vivo, rat
Conditions: male, SD, rat, stomach, po, 4 mg/kg, rats, single oral 4 mg/kg SH-337; read-out: Concentration, Stomach, 15 min
observation.type: concentration at 15 min

compound="CNCc1cc(-c2ccc(OCC3CC3)cc2F)n(S(=O)(=O)c2cccnc2)c1.Cl.Cl [SH-337]" result="9820 ng/mL"

* * *

Assay: Tissue distribution of SH-337 in rats (LC-MS/MS)
Type: in vivo, rat
Conditions: male, SD, rat, liver, po, 4 mg/kg, rats, single oral 4 mg/kg SH-337; read-out: Concentration, Liver, 15 min
Experimental: 15 SPF male SD rats were randomly divided into 5 groups, three per group. Fasting was for 4 hours. Plasma, heart, liver, and stomach were obtained 0.25, 1, 2, 4, and 24 hours after oral administration of SH-337 (0.4 mg/mL in water) at a dose of 4 mg/kg. At designated time points, rats were anesthetized with ether, and the blood samples were collected via the abdominal aorta. […]
observation.type: concentration at 15 min (µg/mL)

cpd_smiles=CNCc1cc(-c2ccc(OCC3CC3)cc2F)n(S(=O)(=O)c2cccnc2)c1.Cl.Cl quantitative_readout=5.24

* * *

Biological target: Na+, K+-ATPase
Assay: In vitro Na+, K+-ATPase activity
pIC50: −log10 of the molar value.
observation.type: pIC50

cpd_smiles=CNCc1cc(-c2ccccc2F)n(S(=O)(=O)c2cccnc2)c1.O=C(O)/C=C/C(=O)O observation_type=pIC50 quantitative_readout=4.33
cpd_smiles=CNCc1cc(-c2ccc(OCC3CC3)cc2F)n(S(=O)(=O)c2cccnc2)c1.Cl.Cl observation_type=pIC50 quantitative_readout=4.50

* * *

Measured half-life of individual entries
Assay: Rat microsomal stability
Type: in vitro ADME
Settings: rat, rat liver microsomes; read-out: Metabolic stability (t1/2) rat
observation.type: half-life

cpd_smiles=CNCc1cc(-c2ccccc2F)n(S(=O)(=O)c2cccnc2)c1.O=C(O)/C=C/C(=O)O observation_type=half-life result="54.5 min"
cpd_smiles=CNCc1cc(-c2ccc(OCC3CC3)cc2F)n(S(=O)(=O)c2cccnc2)c1.Cl.Cl observation_type=half-life result="3.1 min"

* * *

Assay: Tissue distribution of SH-337 in rats (LC-MS/MS)
Type: in vivo, rat
Settings: after oral dosing of 4.0 mg/kg SH-337
observation.type: AUC0–24 in the liver (ng·h/g)

compound="CNCc1cc(-c2ccc(O)cc2F)n(S(=O)(=O)c2cccnc2)c1.Cl.Cl [M-IV]" observation_type="AUC0–24 in the liver" quantitative_readout=3410
